# System: SNB-75
# runDescription: NCI tumour cell line growth inhibition, 48 h
Calls of active or inactive are those of the source. Rule as the data show it: active = GI50 up to about 1.1 µM and inactive = higher.
reportedProperty: GI50

Task item: # query: GI50 | item `COc1cc(OC)cc(C(=O)NC2=C(Cl)C(=O)c3ccccc3C2=O)c1` | system: SNB-75
Reply: 2.67 µM (inactive)

Task item: Consider next the compound CCOP(=O)(OCC)C1CCCOC1=O (stereo not given) in the same way.
Reply: > 100 µM (inactive)

Task item: // same read-out, input: `O=[N+]([O-])C(C(Cl)=C(Cl)Cl)=C(N1CCCCC1)N1CCCCC1`
Reply: > 100 µM (inactive)

Task item: // same read-out, input: `O=P(O)(O)CN1CCNCCN(CP(=O)(O)O)CC1`
Reply: > 54.5 µM (inactive)

Task item: Also `Cn1cnc([N+](=O)[O-])c1Sc1nnnn1-c1ccccc1` ?
Reply: 16.4 µM (inactive)

Task item: Also check `COc1cc(CSc2ccc(O)cc2)cc(OC)c1OC`
Reply: 23.1 µM (inactive)

Task item: Request: `O=C1c2ccccc2C(=O)c2c1nc1ccccc1c2-c1cncc(-c2c3c(nc4ccccc24)C(=O)c2ccccc2C3=O)c1`
Reply: 5.69 µM (inactive)

Task item: Now try `CCCC1c2c(ccc3ccccc23)Oc2ccc3ccccc3c21` .
Reply: > 100 µM (inactive)

Task item: Please give the result for `Cc1ccc(S(=O)(=O)Nn2c(S)c(C#N)c(-c3ccc(N(C)C)cc3)c(C#N)c2=O)cc1` too.
Reply: 35.2 µM (inactive)

Task item: Field entry: C[C@@H]1CC[C@]2(C(=O)O)CC[C@]3(C)C(=CC[C@@H]4[C@@]5(C)CC[C@H](O)C(C)(C)[C@@H]5CC[C@]43C)[C@@H]2[C@]1(C)O [POMOLIC ACID]
Reply: 13.5 µM (inactive)

Task item: What about `Cc1c(C(=O)C/C(=N/NC(=O)C[n+]2ccccc2)C(=O)Nc2ccccc2)[n+]([O-])c2ccccc2[n+]1[O-]` ?
Reply: > 100 µM (inactive)

Task item: Now consider OC(CCN1CCN(CCOC(c2ccc(F)cc2)c2ccc(F)cc2)CC1)c1ccccc1 (stereo not given) and answer again.
Reply: 13.5 µM (inactive)

Task item: // query: `Nc1ccc2[nH]cc(CCC(=O)O)c2c1`
Reply: 46.1 µM (inactive)

Task item: What do we get for `CCCCn1c2c(n(CCCC)c1=S)-c1c(n(CCCC)c(=S)n1CCCC)SSc1c(n(CCCC)c(=S)n1CCCC)-c1c(n(CCCC)c(=S)n1CCCC)SSc1c(n(CCCC)c(=S)n1CCCC)-c1c(n(CCCC)c(=S)n1CCCC)SS2` ?
Reply: 10.1 µM (inactive)

Task item: Same question for `c1ccc(CN2CCc3[nH]c4ccccc4c3C2)cc1` please.
Reply: 51.6 µM (inactive)

Task item: Same for `COc1nc(OC)nc(Sc2ccc(Sc3ccc(Sc4nc(OC)nc(OC)n4)cc3)cc2)n1`
Reply: > 100 µM (inactive)

Task item: Ok, now `c1cncc(CSc2nc3ccccc3nc2-c2cccs2)c1`
Reply: > 100 µM (inactive)

Task item: Consider next the compound `Cc1ccc(NC(=O)CC(=O)n2nc(-c3ccccc3)c(/N=N/c3ccc(Cl)cc3)c2-c2ccccc2)cc1` in the same way.
Reply: 22.6 µM (inactive)

Task item: How about NNC(=O)N/N=C1\CNC(=O)C(=O)C1c1nc2ccccc2s1 (stereo not given) ?
Reply: > 100 µM (inactive)

Task item: // query: CN(C)C(=O)C(F)(F)C(c1ccc(F)cc1)C1C(=O)N(C)C(=O)N(C)C1=O (stereo not given)
Reply: > 100 µM (inactive)
